# Experiment description: AUC (0.5 to 16 hrs) in B6C3F1 mouse brain at 5 mg/kg, ip
# Assay type: ADME, organism-based
# Set-up: time 0.5-16 hr, dose 5 mg/kg, route intraperitoneal
Endpoint name: AUC(0-t)

# Smiles entry, Endpoint name, Reported
rows = [
    ("Nc1scc2c(C(=O)NC3CC3)nn(-c3ccc(F)cc3)c(=O)c12", "AUC(0-t)", "4510 ng·h/mL"),
]

* * *

# Species on record: Homo sapiens
# Experiment description: Inhibition of heparin-induced alexa red-labelled tau K18PL mutant aggregation after 6 hrs by thioflavin-T fluorescence assay relative to control
Assign class by Imax: not lower than 80% means yes (1); lower than 80% means no (0).

# Molecule, Group
records = [
    ("Nc1scc2c(C(=O)NC3CC3)nn(-c3ccc(F)cc3)c(=O)c12", "yes (1)"),
    ("Cc1nn(C2CCCCC2)c(=O)c2c(N)scc12", "no (0)"),
    ("CCOC(=O)c1nn(-c2ccc(OC(F)(F)F)cc2)c(=O)c2c(N)scc12", "no (0)"),
    ("Nc1scc2c(C(=O)O)nn(-c3ccc(O)cc3)c(=O)c12", "yes (1)"),
    ("CCOC(=O)c1nn(-c2ccc(Cl)cc2)c(=O)c2c1C(O)NC2=O (stereo not drawn)", "no (0)"),
    ("Nc1scc2c(-c3ccccc3)nn(CC(F)(F)F)c(=O)c12", "yes (1)"),
    ("Cc1nn(Cc2ccccc2)c(=O)c2c(N)scc12", "yes (1)"),
    ("CC(C)NC(=O)c1nn(-c2ccc(O)cc2)c(=O)c2c(N)scc12", "yes (1)"),
    ("Cc1nn(-c2ccccn2)c(=O)c2c(N)scc12", "yes (1)"),
    ("Nc1scc2c(C(=O)O)nn(-c3ccc(OC(F)(F)F)cc3)c(=O)c12", "yes (1)"),
    ("Nc1scc2c(C(=O)NCC(F)(F)F)nn(-c3ccc(F)cc3)c(=O)c12", "yes (1)"),
    ("CCOC(=O)c1nn(-c2ccc(Cl)cc2)c(=O)c2c(N)sc(Br)c12", "yes (1)"),
    ("Cc1nn(C(C)C)c(=O)c2c(N)scc12", "yes (1)"),
    ("CC(C)NC(=O)c1nn(-c2ccc(Cl)cc2)c(=O)c2c1CSC2=O", "yes (1)"),
    ("Nc1scc2c(C(=O)O)nn(-c3ccc(F)cc3)c(=O)c12", "yes (1)"),
    ("O=C(O)c1nn(-c2ccc(F)cc2)c(=O)c2c1CSC2=O", "yes (1)"),
    ("Nc1scc2c(C(=O)O)nn(-c3cccc(Cl)c3)c(=O)c12", "yes (1)"),
    ("CCOC(=O)c1nn(-c2ccc(C(F)(F)F)cc2)c(=O)c2c(N)scc12", "no (0)"),
    ("Cc1nn(-c2ccc(Cl)cc2)c(=O)c2c(N)scc12", "yes (1)"),
    ("CCOC(=O)c1c(C(=O)c2ccccc2)csc1N", "no (0)"),
]

* * *

# Species: Homo sapiens
# Experiment description: Inhibition of heparin-induced tau K18PL mutant aggregation assessed as soluble tau fragment level at 50 uM after 5 days by SDS-PAGE analysis
Listing of entries alongside the reported inhibition.

# Molecule, Value units, inhibition
measured = [
    ("Nc1scc2c(C(=O)O)nn(-c3ccc(O)cc3)c(=O)c12", "%", 70),
    ("CC(C)n1nc(-c2ccccc2)c2csc(N)c2c1=O", "%", 92),
    ("CCOC(=O)C1=NN(c2ccc(Cl)cc2)C(=O)C(C#N)C1C (centres undefined)", "%", 21),
    ("CC(C)NC(=O)c1nn(-c2cccc(Cl)c2)c(=O)c2c(N)scc12", "%", 73),
]

Where do the numbers come from? From ChEMBL document CHEMBL2057102.
